tested on: Caco-2 cells; assay: Membrane permeability test using Caco-2 cells with preincubation; format: in vitro ADME; settings: Caco-2 cells, preincubation 20 to 24 hours; apical FaSSIF/HBSS 1% DMSO pH 6.0, basal HBSS 4% BSA pH 7.4; basal sample at 180 minutes
Positions of bridges follow the written chain, without caps; N, C: chain ends. Non-standard residues stand in square brackets, D forms with d. Residues, ends and D or L forms follow the SMILES beside them. *: point of attachment. NMeF = CN[C@@H](Cc1ccccc1)C(=O)O; hPhe = N[C@@H](CCc1ccccc1)C(=O)O; NMeD = CN[C@@H](CC(=O)O)C(=O)O; NMeL = CN[C@@H](CC(C)C)C(=O)O; NMeV = CN[C@H](C(=O)O)C(C)C; NMeA = CN[C@@H](C)C(=O)O; Piperidide = C1CCN(*)CC1; NBuGly = CCCCNCC(=O)O; Sar = CNCC(=O)O; tBu = CC(C)(C)*
metric-name: Caco2 Papp (10^-6 cm/sec)

For CC[C@H](C)[C@@H]1NC(=O)CN(C)C(=O)C[C@@H](C(=O)N2CCCCC2)N(C)C(=O)[C@H](CC(C)C)NC(=O)[C@H](CC(C)C)N(C)C(=O)[C@H]([C@@H](C)O)NC(=O)[C@H](Cc2ccccc2)N(C)C(=O)[C@H](CC(C)C)NC(=O)[C@H](C(C)C)N(C)C(=O)[C@H](C)N(C)C(=O)[C@H](CC(C)C)N(C)C(=O)[C@H](CCc2ccccc2)NC(=O)[C@H](CC(C)C)N(C)C1=O [pd160] ([Sar]I[NMeL][hPhe][NMeL][NMeA][NMeV]L[NMeF]T[NMeL]L[NMeD]-Piperidide; lactam N-13) , what is its reported Caco2 Papp (10^-6 cm/sec)? 0.06 10^-6 cm/sec

For CCCCN1CC(=O)N[C@@H](COC(C)(C)C)C(=O)N(C)[C@@H](Cc2ccccc2)C(=O)N[C@@H](CC(C)C)C(=O)N(C)[C@@H](C(C)C)C(=O)N[C@H](C(=O)N2CCCCC2)CC(=O)N[C@H](C(C)C)C(=O)N(C)[C@@H](Cc2ccccc2)C(=O)N[C@@H](CC(C)C)C(=O)N(C)[C@@H](C(C)C)C(=O)N(C)[C@@H](CC(C)C)C(=O)N[C@@H]([C@@H](C)O)C(=O)N(C)[C@@H](CC(C)C)C1=O [pd100] ([dV][NMeF]L[NMeV][NMeL]T[NMeL][NBuGly]S(tBu)[NMeF]L[NMeV]D-Piperidide; lactam N-13) , what is its reported Caco2 Papp (10^-6 cm/sec)? <0.12 10^-6 cm/sec

* * *

assay: Mouse PK test: plasma concentration after intravenous or oral administration; type: in vivo, mice (C57BL/6J); settings: C57BL/6J, in vivo, male mice, oral administration, 50 mg/kg, read-out: Tmax
Starred links: 1 amine or outer side, 2 acyl side, 3 side chain; linkers in the order of their positions; H or OH if unused. Non-standard residues stand in square brackets, D forms with d. Residues, ends and D or L forms follow the SMILES beside them. *: point of attachment. NMedβ3hAla = C[C@H](CC(=O)[*:2])N(C)[*:1]; NMeF = CN[C@@H](Cc1ccccc1)C(=O)O; NMeI = CC[C@H](C)[C@H](NC)C(=O)O; hPhe = N[C@@H](CCc1ccccc1)C(=O)O; NMeβAla = CN(CCC(=O)[*:2])[*:1]; NMeL = CN[C@@H](CC(C)C)C(=O)O; Abu = CC[C@H](N)C(=O)O; Sar = CNCC(=O)O; tBu = CC(C)(C)*
metric-name: Tmax
Could you give the number and then its unit, please?

For CC[C@@H]1NC(=O)[C@H](CC(C)C)N(C)C(=O)[C@H](COC(C)(C)C)NC(=O)[C@H]([C@@H](C)CC)N(C)C(=O)[C@H](CCc2ccccc2)NC(=O)[C@H](Cc2ccccc2)N(C)C(=O)[C@H](C(C)C)NC(=O)[C@H](CC(C)C)N(C)C(=O)[C@H](CC(C)C)NC(=O)CCN(C)C(=O)C[C@@H](C)N(C)C(=O)CN(C)C(=O)[C@H](CC(C)C)N(C)C(=O)[C@@H]2CCCN2C1=O [pd065] (cyclo([Abu]P[NMeL][Sar][NMedβ3hAla][NMeβAla]L[NMeL]V[NMeF][hPhe][NMeI]S(tBu)[NMeL])) , what is its reported Tmax? 2.7 h
